This section presents compounds with their documented melting point values.
Counter-ions that a name gives are not always drawn.

[
  {
    "compound": "Cc1cc(-n2cnc(Cn3ccnc3N)c2)ccc1Cl (as salt: hydrochloride) [Example 105]",
    "melting point": "230 to 233 °C"
  },
  {
    "compound": "Cc1nccn1Cc1cn(-c2ccc(OC(F)(F)F)c(Cl)c2)cn1.Cl.Cl [Example 186]",
    "melting point": "221 to 222 °C"
  },
  {
    "compound": "Cc1nccn1Cc1cn(-c2ccc(Cl)cn2)cn1 (as salt: sodium) [Example 212]",
    "melting point": "192 to 196 °C"
  },
  {
    "compound": "CSc1cccc(-n2cnc(Cn3ccnc3C)c2)c1.Cl.Cl",
    "melting point": "> 200 °C (dec.)"
  },
  {
    "compound": "Cl.Cl.FC(F)Oc1cccc(-n2cnc(Cn3ccnc3)c2)c1",
    "melting point": "205 to 206 °C"
  },
  {
    "compound": "CCc1nccn1Cc1cn(-c2ccc(OC)c(F)c2)cn1.Cl.Cl",
    "melting point": "218 to 220 °C"
  },
  {
    "compound": "CCc1nccn1Cc1cn(-c2cccc(OC(F)F)c2)cn1.Cl.Cl [Example 189]",
    "melting point": "216 to 217 °C"
  },
  {
    "compound": "CCc1nccn1Cc1cn(-c2ccc([N+](=O)[O-])cc2)cn1.Cl.Cl",
    "melting point": "196 to 197 °C"
  },
  {
    "compound": "Cl.Cl.Clc1ccc(-n2cnc(Cn3ccnc3)c2)cc1",
    "melting point": "228 to 229 °C"
  },
  {
    "compound": "Cc1nccn1Cc1cn(-c2cccc(C(C)(C)C)c2)cn1.Cl.Cl [Example 183]",
    "melting point": "> 200 °C (dec.)"
  },
  {
    "compound": "Cl.Cl.Nc1nccn1Cc1cn(-c2ccc3c(c2)OCO3)cn1 [Example 224]",
    "melting point": "> 245 °C (dec.)"
  },
  {
    "compound": "CCc1nccn1Cc1cn(-c2cc(F)cc(Br)c2)cn1.Cl.Cl [Example 199]",
    "melting point": "> 200 °C (dec.)"
  },
  {
    "compound": "COc1ccc(-n2cnc(Cn3ccnc3)c2)cc1Cl.Cl.Cl",
    "melting point": "245 to 246 °C"
  },
  {
    "compound": "COc1cc(-n2cnc(Cn3ccnc3C)c2)cc(C(F)(F)F)c1.Cl.Cl [Example 180]",
    "melting point": "246 to 247 °C"
  },
  {
    "compound": "CCc1nccn1Cc1cn(-c2cccc(SC)c2)cn1.Cl.Cl [Example 166]",
    "melting point": "> 200 °C (dec.)"
  },
  {
    "compound": "CCc1nccn1Cc1cn(-c2ccc(OC(F)(F)F)c(Cl)c2)cn1.Cl.Cl",
    "melting point": "> 250 °C"
  },
  {
    "compound": "CCc1nccn1Cc1cn(-c2ccc3c(c2)CCC3)cn1.Cl.Cl [Example 17]",
    "melting point": "240 to 241 °C"
  }
]
